Origin of the recorded values: ChEMBL document CHEMBL4359934

assay-comment: n-Octanol-water partition coefficient, log P of compound incubated for 4 hrs by LC-MS/MS analysis
Assay type: physicochemical
measurement-name: logP at 4 h
Give bare numbers.

Item under review: CCOC(=O)C1=C(C)NC(=O)NC1c1cc2c(cc1OC)OC(C)(CC)C=C2Cl (stereo unspecified) . Reported logP at 4 h? 4.06

====

assay-comment: Stability in human liver microsomes assessed as hepatic extraction ratio at 10 uM by LC-MS/MS analysis
Assay type: ADME, Microsome
experimental-context: read-out: ERH
measurement-name: hepatic extraction ratio at 10 µM

Item under review: CCOC(=O)C1=C(C)NC(=O)NC1c1cc2c(cc1OC)OC(C)(CC)C=C2Cl (stereo unspecified) . Reported hepatic extraction ratio at 10 µM? 0.6

====

assay-comment: Stability in rat liver microsomes assessed as hepatic extraction ratio at 10 uM by LC-MS/MS analysis
Assay type: ADME, Microsome
experimental-context: read-out: ERH
measurement-name: hepatic extraction ratio at 10 µM
Answers are plain numbers.

Item under review: CCOC(=O)C1=C(C)NC(=O)NC1c1cc2c(cc1OC)OC(C)(CC)C=C2Cl (stereo unspecified) . Reported hepatic extraction ratio at 10 µM? 0.41

====

Provide the reported blood plasma ratio at 0.25 h, 0.5 µM of each item.
assay-comment: Ratio of drug level in blood to plasma (unknown origin) at 500 nM incubated for 15 mins by LC-MS/MS analysis
Assay type: ADME, cell-free
experimental-context: blood and plasma
Numbers only.

{"columns": ["molecule", "blood plasma ratio at 0.25 h, 0.5 µM"],
 "data": [
  ["CCOC(=O)C1=C(C)NC(=O)NC1c1cc2c(cc1OC)OC(C)(CC)C=C2Cl (configuration not stated)", 1.11]
]}

Below: the item to evaluate.
Item under review: CC(C)NCC(O)COc1ccc(CC(N)=O)cc1 (configuration not stated) . Reported blood plasma ratio at 0.25 h, 0.5 µM? 1.17

====

assay-comment: Ratio of drug level in blood to plasma (unknown origin) at 500 nM incubated for 30 mins by LC-MS/MS analysis
Assay type: ADME, cell-free
experimental-context: blood and plasma
measurement-name: blood plasma ratio at 0.5 h, 0.5 µM
One number for each entry.

{"columns": ["compound", "measured"],
 "data": [
  ["CC(C)NCC(O)COc1ccc(CC(N)=O)cc1 (configuration not stated) [ATENOLOL]", 1.2]
]}

Item under review: CCOC(=O)C1=C(C)NC(=O)NC1c1cc2c(cc1OC)OC(C)(CC)C=C2Cl (configuration not stated) . Reported blood plasma ratio at 0.5 h, 0.5 µM? 1.25

====

assay-comment: n-Octanol-PBS buffer distribution coefficient, log D of compound incubated for 4 hrs by LC-MS/MS analysis
Assay type: physicochemical
measurement-name: logD at 4 h
One number for each entry.

Item under review: CCOC(=O)C1=C(C)NC(=O)NC1c1cc2c(cc1OC)OC(C)(CC)C=C2Cl (stereo unspecified) . Reported logD at 4 h? 0.08

====

assay-comment: Protein binding in plasma (unknown origin) incubated for 4 hrs by red equilibrium dialysis based LC-MS/MS analysis
Format: ADME, cell-free
experimental-context: read-out: PPB
measurement-name: fraction unbound at 4 h

Item under review: CCOC(=O)C1=C(C)NC(=O)NC1c1cc2c(cc1OC)OC(C)(CC)C=C2Cl (stereo unspecified) . Reported fraction unbound at 4 h? < 0.1

====

assay-comment: Intrinsic clearance in rat liver at 10 uM by LC-MS/MS analysis
Format: ADME, tissue-based
experimental-context: read-out: CLH
measurement-name: CLint scaled at 10 µM (mL/min/kg)
Give bare numbers, in mL/min/kg.

Item under review: CCOC(=O)C1=C(C)NC(=O)NC1c1cc2c(cc1OC)OC(C)(CC)C=C2Cl (stereo unspecified) . Reported CLint scaled at 10 µM? 34
